- Tested on: RPMI-2650
- Assay overview: cells
- Format: functional, cell-based, Homo sapiens
- Measurement setup: Homo sapiens, RPMI-2650
- Description: SANGER: Inhibition of human RPMI-2650 cell growth in a cell viability assay.
Measured parameter: IC50

Summary line: `Cc1ccc(Nc2nccc(N(C)c3ccc4c(C)n(C)nc4c3)n2)cc1S(N)(=O)=O` , RPMI-2650, reported IC50 = > 8000 nM

Summary line: `CN(C)C/C=C/C(=O)Nc1cc2c(Nc3ccc(F)c(Cl)c3)ncnc2cc1O[C@H]1CCOC1` , RPMI-2650, reported IC50 = > 500 nM

Summary line: `CC(=O)O[C@@]12CO[C@@H]1C[C@H](O)[C@@]1(C)C(=O)[C@H](O)C3=C(C)[C@@H](OC(=O)[C@H](O)[C@@H](NC(=O)OC(C)(C)C)c4ccccc4)C[C@@](O)([C@@H](OC(=O)c4ccccc4)[C@H]21)C3(C)C` , RPMI-2650, reported IC50 = 2.46 nM

Summary line: CN(Cc1cnc2nc(N)nc(N)c2n1)c1ccc(C(=O)N[C@@H](CCC(=O)O)C(=O)O)cc1 [METHOTREXATE] , RPMI-2650, reported IC50 = > 200 nM

Summary line: COc1cc([C@@H]2c3cc4c(cc3[C@@H](O[C@@H]3O[C@@H]5CO[C@@H](C)O[C@H]5[C@H](O)[C@H]3O)[C@H]3COC(=O)[C@H]23)OCO4)cc(OC)c1O [ETOPOSIDE] , RPMI-2650, reported IC50 = 572 nM

Summary line: `O=C1N=C(NCc2cccs2)S/C1=C\c1ccc2ncccc2c1` , RPMI-2650, reported IC50 = > 5000 nM

Summary line: `C[C@]1(O)C[C@@H](c2nc(-c3ccc4ccc(-c5ccccc5)nc4c3)c3c(N)nccn32)C1` , RPMI-2650, reported IC50 = > 2560 nM

Summary line: `Cc1cnc(-c2cnc(NCCNc3ccc(C#N)cn3)nc2-c2ccc(Cl)cc2Cl)[nH]1` , RPMI-2650, reported IC50 = > 2560 nM

* * *

Task for the reader: assign each of the following compounds its reported IC50.
- System: NB13;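 also: cell viability readout measuring growth inhibition of human NB13 cells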
- Assay overview: cells
- Type: functional, cell-based, Homo sapiens
- Measurement setup: Homo sapiens, NB13
- Description: SANGER: Inhibition of human NB13 cell growth in a cell viability assay.

Reported IC50 ( `C=CCNC1=C2C[C@@H](C)C[C@H](OC)[C@H](O)[C@@H](C)/C=C(\C)[C@H](OC(N)=O)[C@@H](OC)/C=C\C=C(/C)C(=O)NC(=CC1=O)C2=O` ) = 368 nM

Reported IC50 ( `COc1ccc(C2=N[C@@H](c3ccc(Cl)cc3)[C@@H](c3ccc(Cl)cc3)N2C(=O)N2CCNC(=O)C2)c(OC(C)C)c1` ) = > 8000 nM

Reported IC50 ( COc1cc([C@@H]2c3cc4c(cc3[C@@H](O[C@@H]3O[C@@H]5CO[C@@H](C)O[C@H]5[C@H](O)[C@H]3O)[C@H]3COC(=O)[C@H]23)OCO4)cc(OC)c1O [ETOPOSIDE] ) = 2760 nM

Reported IC50 ( C=C1C(=O)O[C@@H]2C3O[C@]3(C)CC/C=C(\C)CC[C@@H]12 (stereo partly drawn) ) = > 5000 nM

Reported IC50 ( `Cc1cnc(-c2cnc(NCCNc3ccc(C#N)cn3)nc2-c2ccc(Cl)cc2Cl)[nH]1` ) = > 2560 nM

Reported IC50 ( `C=CCc1cccc(/C=N/NC(=O)CN2CCN(Cc3ccccc3)CC2)c1O` ) = > 2560 nM

Reported IC50 ( `O=C1N=C(NCc2cccs2)S/C1=C\c1ccc2ncccc2c1` ) = > 5000 nM

Reported IC50 ( `CS(=O)(=O)CCNCc1ccc(-c2ccc3ncnc(Nc4ccc(OCc5cccc(F)c5)c(Cl)c4)c3c2)o1` ) = > 2000 nM

* * *

- System: LS-1034
- Assay overview: cells
- Format: functional, cell-based, Homo sapiens
- Measurement setup: Homo sapiens, LS-1034
- Description: SANGER: Inhibition of human LS-1034 cell growth in a cell viability assay.
Measured parameter: IC50

Reported IC50 ( `C=CCNC1=C2C[C@@H](C)C[C@H](OC)[C@H](O)[C@@H](C)/C=C(\C)[C@H](OC(N)=O)[C@@H](OC)/C=C\C=C(/C)C(=O)NC(=CC1=O)C2=O` ) = > 1000 nM

Reported IC50 ( `CCC(=O)N1CCN(c2ccc(-n3c(=O)ccc4cnc5ccc(-c6cnc7ccccc7c6)cc5c43)cc2C(F)(F)F)CC1` ) = 364 nM

Reported IC50 ( `CN(c1ncccc1CNc1nc(Nc2ccc3c(c2)CC(=O)N3)ncc1C(F)(F)F)S(C)(=O)=O` ) = > 2560 nM

Reported IC50 ( `Nc1ccn([C@@H]2O[C@H](CO)[C@@H](O)[C@@H]2O)c(=O)n1` ) = > 2000 nM

* * *

- Tested on: GCT;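 also: GCT cell line proliferation inhibition, read out with a cell viability assay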
- Assay overview: cells
- Format: functional, cell-based, Homo sapiens
- Measurement setup: Homo sapiens, GCT
- Description: SANGER: Inhibition of human GCT cell growth in a cell viability assay.
pIC50: −log10 of the molar value.
Task for the reader: assign each of the following molecules its reported pIC50.

Reported pIC50 ( `C=CCNC1=C2C[C@@H](C)C[C@H](OC)[C@H](O)[C@@H](C)/C=C(\C)[C@H](OC(N)=O)[C@@H](OC)/C=C\C=C(/C)C(=O)NC(=CC1=O)C2=O` ) = < 6.00

Reported pIC50 ( `CCOc1nc(NC(=O)Cc2cc(OC)ccc2OC)cc(N)c1C#N` ) = < 5.00

Reported pIC50 ( COc1cc([C@@H]2c3cc4c(cc3[C@@H](O[C@@H]3O[C@@H]5CO[C@@H](C)O[C@H]5[C@H](O)[C@H]3O)[C@H]3COC(=O)[C@H]23)OCO4)cc(OC)c1O [ETOPOSIDE] ) = 5.49

* * *

- System: SNU-C2B;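 also: cell viability readout used to measure compound-driven suppression of SNU-C2B cell proliferation, IC50 marking half-maximal growth inhibition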
- Assay overview: cells
- Type: functional, cell-based, Homo sapiens
- Measurement setup: snu-c2b
- Description: SANGER: Inhibition of human SNU-C2B cell growth in a cell viability assay.
Measured parameter: IC50

Summary line: Cc1cc([C@@H](C)Nc2ccccc2C(=O)O)c2nc(N3CCOCC3)cc(=O)n2c1 [AZD-6482] , SNU-C2B, reported IC50 = > 5.12 µM

* * *

Task for the reader: assign each of the following compounds its reported IC50.
- System: IST-SL1
- Assay overview: cells
- Format: functional, cell-based, Homo sapiens
- Measurement setup: Homo sapiens, IST-SL1
- Description: SANGER: Inhibition of human IST-SL1 cell growth in a cell viability assay.

Reported IC50 ( `CCOc1nc(NC(=O)Cc2cc(OC)ccc2OC)cc(N)c1C#N` ) = > 10000 nM

Reported IC50 ( `Cc1cnc(-c2cnc(NCCNc3ccc(C#N)cn3)nc2-c2ccc(Cl)cc2Cl)[nH]1` ) = > 2560 nM

Reported IC50 ( `C[C@]1(O)C[C@@H](c2nc(-c3ccc4ccc(-c5ccccc5)nc4c3)c3c(N)nccn32)C1` ) = > 2560 nM

Reported IC50 ( `CS(=O)(=O)CCNCc1ccc(-c2ccc3ncnc(Nc4ccc(OCc5cccc(F)c5)c(Cl)c4)c3c2)o1` ) = > 2000 nM

* * *

- System: KNS-81-FD
- Assay overview: cells
- Assay type: functional, cell-based, Homo sapiens
- Measurement setup: kns-81-fd
- Description: SANGER: Inhibition of human KNS-81-FD cell growth in a cell viability assay.
pIC50: −log10 of the molar value.
Measured parameter: pIC50

Summary line: Cc1cc([C@@H](C)Nc2ccccc2C(=O)O)c2nc(N3CCOCC3)cc(=O)n2c1 [AZD-6482] , KNS-81-FD, reported pIC50 = < 5.29

* * *

- Tested on: C8166;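 also: growth inhibition of human C8166 cells measured by a cell viability assay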
- Assay overview: cells
- Assay type: functional, cell-based
- Measurement setup: Homo sapiens
- Description: SANGER: Inhibition of human C8166 cell growth in a cell viability assay.
Task for the reader: assign each of the following molecules its reported IC50.

Reported IC50 ( CN(Cc1cnc2nc(N)nc(N)c2n1)c1ccc(C(=O)N[C@@H](CCC(=O)O)C(=O)O)cc1 [METHOTREXATE] ) = > 0.2 µM

Reported IC50 ( CCC1=C[C@@H]2CN(C1)Cc1c([nH]c3ccccc13)[C@@](C(=O)OC)(c1cc3c(cc1OC)N(C)[C@H]1[C@@](O)(C(=O)OC)[C@H](OC(C)=O)[C@]4(CC)C=CCN5CC[C@]31[C@@H]54)C2 [VINORELBINE] ) = 0.0176 µM

Reported IC50 ( C[C@]1(O)C[C@@H](c2nc(-c3ccc4ccc(-c5ccccc5)nc4c3)c3c(N)nccn32)C1 [LINSITINIB] ) = > 2.56 µM

Reported IC50 ( CS(=O)(=O)CCNCc1ccc(-c2ccc3ncnc(Nc4ccc(OCc5cccc(F)c5)c(Cl)c4)c3c2)o1 [LAPATINIB] ) = > 2 µM

Reported IC50 ( Cn1cncc1[C@@](N)(c1ccc(Cl)cc1)c1ccc2c(c1)c(-c1cccc(Cl)c1)cc(=O)n2C [TIPIFARNIB] ) = > 16 µM

* * *

- Tested on: NCI-H1304;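 also: growth inhibition of the cancer cell line, measured in a cell viability assay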
- Assay overview: cells
- Type: functional, cell-based
- Measurement setup: Homo sapiens
- Description: SANGER: Inhibition of human NCI-H1304 cell growth in a cell viability assay.
pIC50: −log10 of the molar value.
Measured parameter: pIC50

Summary line: `CN(c1ncccc1CNc1nc(Nc2ccc3c(c2)CC(=O)N3)ncc1C(F)(F)F)S(C)(=O)=O` , NCI-H1304, reported pIC50 = < 5.59

Summary line: O=C(/C=C/c1ccccc1)NC(NC(=S)Nc1cccc2cccnc12)C(Cl)(Cl)Cl (centres undefined) , NCI-H1304, reported pIC50 = < 4.80

Summary line: `CN1CCN(CCOc2cc(OC3CCOCC3)c3c(Nc4c(Cl)ccc5c4OCO5)ncnc3c2)CC1` , NCI-H1304, reported pIC50 = < 5.70

Summary line: CN(Cc1cnc2nc(N)nc(N)c2n1)c1ccc(C(=O)N[C@@H](CCC(=O)O)C(=O)O)cc1 [METHOTREXATE] , NCI-H1304, reported pIC50 = < 6.70

Summary line: `C[C@]1(O)C[C@@H](c2nc(-c3ccc4ccc(-c5ccccc5)nc4c3)c3c(N)nccn32)C1` , NCI-H1304, reported pIC50 = < 5.59

Summary line: `O=C(c1cc(Cc2n[nH]c(=O)c3ccccc23)ccc1F)N1CCN(C(=O)C2CC2)CC1` , NCI-H1304, reported pIC50 = < 5.30

Summary line: `O=C(NOCC1CC1)c1ccc(F)c(F)c1Nc1ccc(I)cc1Cl` , NCI-H1304, reported pIC50 = 5.21

Summary line: `COC(=O)CNC(=O)C(=O)OC` , NCI-H1304, reported pIC50 = 3.27

Summary line: `CCC1=C[C@@H]2CN(C1)Cc1c([nH]c3ccccc13)[C@@](C(=O)OC)(c1cc3c(cc1OC)N(C)[C@H]1[C@@](O)(C(=O)OC)[C@H](OC(C)=O)[C@]4(CC)C=CCN5CC[C@]31[C@@H]54)C2` , NCI-H1304, reported pIC50 = 7.45

Data credit: ChEMBL document CHEMBL1201861
